// data source = patent US20180327473A1

- target.entity: T1, human alpha fetoprotein (hAFP158) peptide on HLA-A2 (human)
- T1 peptide: FMNKFIYEI
- assay.name: multimer staining
reported.metric: binding result

# binder, reported.metric, result
data = [
    ("mTCR-3 (TCR, V domains shown) Valpha: QQKVQQSPESLIVPEGGMASLNCTSSDRNVDYFWWYRQHSGKSPKMLMSIFSNGEKEEGRFTVHLNKASLHTSLHIRDSQPSDSALYLCAASMAGGYKVVFGSGTRLLVSP Vbeta: EAAVTQSPRNKVTVTGGNVTLSCRQTNSHNYMYWYRQDTGHGLRLIHYSYGAGNLQIGDVPDGYKATRTTQEDFFLLLELASPSQTSLYFCASSDAGTAQNTLYFGAGTRLSVL", "binding result", "recognises"),
    ("mTCR-38 (TCR, V domains shown) Valpha: QQKVQQSPESLIVPEGGMASLNCTSSDRNVDYFWWYRQHSGKSPKMLMSIFSNGEKEEGRFTVHLNKASLHTSLHIRDSQPSDSALYLCAATLTGGYKVVFGSGTRLLVSP Vbeta: EAAVTQSPRNKVTVTGGNVTLSCRQTNSHNYMYWYRQDTGHGLRLIHYSYGAGNLQIGDVPDGYKATRTTQEDFFLLLELASPSQTSLYFCASSDAGTSQNTLYFGAGTRLSVL", "binding result", "recognises"),
    ("mTCR-2 (TCR, V domains shown) Valpha: QQKVQQSPESLIVPEGGMASLNCTSSDRNVDYFWWYRQHSGKSPKMLMSIFSNGEKEEGRFTVHLNKASLHTSLHIRDSQPSDSALYLCAASTVNAYKVIFGKGTHLHVLP Vbeta: EAAVTQSPRNKVTVTGGNVTLSCRQTNSHNYMYWYRQDTGHGLRLIHYSYGAGNLQIGDVPDGYKATRTTQEDFFLLLELASPSQTSLYFCASSDAGTSQNTLYFGAGTRLSVL", "binding result", "recognises"),
]
